Biological target: Human plasma kallikrein (Homo sapiens)
Construct: yields a heavy chain (371 amino acids) and a light chain (248 amino acids)
Assay: Kallikrein assay (plasma kallikrein)
Conditions: purified Human plasma kallikrein 0.5 nM, Acetyl-K-P-R-AFC substrate, pH 7.4; read-out: pKal IC50
measured.endpoint: IC50 (µM)

Illustrative cases are given below, each with its answer.
Request: Quick one: IC50 of COC(=O)Nc1ccc2c(c1)NC(=O)C(C)(C)CCC[C@H](c1ccc(-c3cc(F)ccc3OC(F)F)c[n+]1[O-])c1nc-2c(C(=O)O)[nH]1.N (single isomer, unassigned) [Example 7] ?
Response: 0.0044

Request: Then COC(=O)Nc1ccc2c(c1)NC(=O)C(C)(C)CCC[C@H](c1ccc(-c3cccc(Cl)c3F)c[n+]1[O-])c1nc-2c(C(=O)O)[nH]1 [Example 9] ?
Response: 0.0011

Request: Then CCOC(=O)c1[nH]c2nc1-c1ccc(NC(=O)OC)cc1NC(=O)C(C)(C)CCC[C@@H]2c1ccc(-c2cc(F)ccc2-n2cc(C(F)(F)F)cn2)c[n+]1[O-] [Example 1] ?
Response: 0.119

Request: Then CCOC(=O)c1[nH]c2nc1-c1ccc(NC(=O)OC)cc1NC(=O)C(C)(C)CCC[C@@H]2c1ccc(-c2cc(Cl)cnc2OC(F)F)c[n+]1[O-] [Example 4] ?
Response: 0.104

[I] COC(=O)Nc1ccc2c(c1)NC(=O)C(C)(C)CCC[C@H](c1ccc(-c3cc(F)ccc3-n3cc(C(F)(F)F)cn3)c[n+]1[O-])c1nc-2c(C(=O)O)[nH]1 [Example 8]
[II] CCOC(=O)c1[nH]c2nc1-c1ccc(NC(=O)OC)cc1NC(=O)C(C)(C)CCC[C@@H]2c1ccc(-c2cc(F)ccc2OC(F)F)c[n+]1[O-] [Example 3]
Request: Pick one: I or II . Which has the bigger IC50 number? Identify your pick by its label.
Response: I
(I: 0.544 µM, II: 0.0014 µM)

* * *

Experiment: Rat pharmacokinetics (cassette IV or screening IV/PO)
Assay type: in vivo
Conditions: male; rat plasma, mean residence time
measured.endpoint: MRT (h)

Request: Quick one: MRT of CCOC(=O)c1[nH]c2nc1-c1ccc(NC(=O)OC)cc1NC(=O)C(C)(C)CCC[C@@H]2c1ccc(-c2cc(F)ccc2-n2cc(C(F)(F)F)cn2)c[n+]1[O-] ?
Response: 4

Request: Then CCOC(=O)c1[nH]c2nc1-c1ccc(NC(=O)OC)cc1NC(=O)C(C)(C)CCC[C@@H]2c1ccc(-c2cc(F)ccc2OC(F)F)c[n+]1[O-] ?
Response: 3.2

Request: Then CCOC(=O)c1[nH]c2nc1-c1ccc(NC(=O)OC)cc1NC(=O)C(C)(C)CCC[C@@H]2c1ccc(-c2cc(Cl)cnc2OC(F)F)c[n+]1[O-] ?
Response: 3.8

* * *

Target: Human plasma kallikrein (Homo sapiens, UniProt P03952)
Construct: yields a heavy chain (371 amino acids) and a light chain (248 amino acids); purchased Enzyme Research Laboratories
Sequence (P03952 391-638 limits assumed): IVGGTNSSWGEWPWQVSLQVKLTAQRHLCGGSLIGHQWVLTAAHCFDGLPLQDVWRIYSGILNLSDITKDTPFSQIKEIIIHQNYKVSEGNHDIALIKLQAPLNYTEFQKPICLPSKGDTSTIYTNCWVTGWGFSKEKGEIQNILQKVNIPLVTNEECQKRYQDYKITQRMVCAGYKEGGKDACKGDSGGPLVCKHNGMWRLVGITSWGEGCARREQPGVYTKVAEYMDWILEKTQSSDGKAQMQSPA
Sequence (P03952 20-390 partner limits assumed): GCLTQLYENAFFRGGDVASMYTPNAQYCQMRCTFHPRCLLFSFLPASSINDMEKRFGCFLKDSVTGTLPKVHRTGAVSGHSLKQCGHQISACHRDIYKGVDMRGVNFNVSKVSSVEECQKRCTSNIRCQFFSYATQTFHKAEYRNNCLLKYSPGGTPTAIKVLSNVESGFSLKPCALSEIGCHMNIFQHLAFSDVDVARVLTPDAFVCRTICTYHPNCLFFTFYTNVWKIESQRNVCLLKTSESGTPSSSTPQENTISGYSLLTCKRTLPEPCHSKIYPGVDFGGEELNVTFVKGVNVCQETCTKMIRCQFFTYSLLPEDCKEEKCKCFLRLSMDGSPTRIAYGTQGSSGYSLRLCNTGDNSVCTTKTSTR
Test: Kallikrein assay (plasma kallikrein)
Assay type: biochemical
Settings: purified Human plasma kallikrein 0.5 nM, Acetyl-K-P-R-AFC substrate, pH 7.4; read-out: pKal IC50
measured.endpoint: IC50 (nM)

Request: I'm curious: which IC50 was measured for COC(=O)Nc1ccc2c(c1)NC(=O)C(C)(C)CCC[C@H](c1ccc(-c3cc(F)ccc3-n3cc(C(F)(F)F)cn3)c[n+]1[O-])c1nc-2c(C(=O)OC)[nH]1 tested on Human plasma kallikrein (Homo sapiens, UniProt P03952)?
Response: 122

[1] CCOC(=O)c1[nH]c2nc1-c1ccc(NC(=O)OC)cc1NC(=O)C(C)(C)CCC[C@@H]2c1ccc(-c2cc(Cl)ccc2-n2cc(C(F)(F)F)cn2)c[n+]1[O-]
[2] CCOC(=O)c1[nH]c2nc1-c1ccc(NC(=O)OC)cc1NC(=O)C(C)(C)CCC[C@@H]2c1ccc(-c2cccc(Cl)c2F)c[n+]1[O-]
Request: Please choose the item with the lower IC50 value from this pair: 1 and 2 Identify your pick by its label.
Response: 2
(2: 0.49 nM, 1: 11 nM)

Values from patent US12497403B2
